- assayedSystem: JNK1-dc20 (JNK1 with the C-terminal 20 residues truncated) (human, UniProt P45983 1-427)
- Sequence (P45983 other isoform, or with tags, fused parts or gaps): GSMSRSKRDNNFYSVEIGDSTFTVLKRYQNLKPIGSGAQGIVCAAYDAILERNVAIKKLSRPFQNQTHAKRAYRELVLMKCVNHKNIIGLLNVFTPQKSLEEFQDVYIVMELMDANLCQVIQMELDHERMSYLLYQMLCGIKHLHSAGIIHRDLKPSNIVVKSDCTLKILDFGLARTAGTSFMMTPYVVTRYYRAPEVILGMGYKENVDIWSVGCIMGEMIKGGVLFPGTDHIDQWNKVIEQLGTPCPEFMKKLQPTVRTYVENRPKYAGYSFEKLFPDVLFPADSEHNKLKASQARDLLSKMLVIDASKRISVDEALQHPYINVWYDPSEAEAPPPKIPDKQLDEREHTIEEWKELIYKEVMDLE
- testDetails: ITC; 2 mM EDTA
parameterMeasured: Kd

Would you mind telling me what Kd value was observed for MSDDKPFLCTAPGCGQRFTNEDHLAVHKHKHEMTLKFGPA (domain or fragment) [ATF2(19–58)-His6 (MBP removed, for ITC)] ?
48 µM
